Here the recorded IC50 is given for each entry.
Test system: SARS-CoV-2
Experiment: microbe, parasite or virus in culture
Conditions: Severe acute respiratory syndrome coronavirus 2, Vero C1008, 48 h

# Compound, IC50
records = [
    ("Cc1c(CN(C)C(=O)/C=C/c2cnc3c(c2)CCC(=O)N3)oc2ccccc12", "> 20 µM"),
    ("CC(C)(N)C(=O)N[C@H](COCc1ccccc1)C(=O)N1CCC2(CC1)CN(S(C)(=O)=O)c1ccccc12", "> 20 µM"),
    ("NC(=O)OCC(O)COc1ccc(Cl)cc1 (centres undefined) [CHLORPHENESIN CARBAMATE]", "> 20 µM"),
    ("CC(CCC(=O)O)C1CCC2C3CC[C@@H]4C[C@H](O)CC[C@]4(C)C3C[C@H](O)[C@]12C (some centres undefined)", "> 20 µM"),
]

----------
Test system: SARS-CoV-2
Test: microbe, parasite or virus in culture
Format: functional, organism-based, Chlorocebus sabaeus, Vero C1008
Settings: Severe acute respiratory syndrome coronavirus 2, Vero C1008, 48 h; read-out: pIC50 (converted)

# Compound, IC50
records = [
    ("Clc1ccc(C(c2ccccc2)N2CCN(C/C=C/c3ccccc3)CC2)cc1 (stereo not given)", "20.9 µM"),
    ("CCOC1O[C@H]([C@@H](COCc2ccccc2)OCc2ccccc2)[C@H](OCc2ccccc2)[C@H]1O (stereo not given in full) [TRIBENOSIDE]", "> 50.1 µM"),
    ("OC(CNCC(O)C1CCc2cc(F)ccc2O1)C1CCc2cc(F)ccc2O1 (stereo not given)", "> 100 µM"),
    ("COC(=O)N[C@H](C(=O)N1CCC[C@H]1c1nc(-c2ccc3cc(-c4ccc5[nH]c([C@@H]6CCCN6C(=O)[C@@H](NC(=O)OC)C(C)C)nc5c4)ccc3c2)c[nH]1)C(C)C", "> 100 µM"),
    ("COc1cccc([C@@H](C)NCCCc2ccccc2Cl)c1", "> 100 µM"),
    ("COc1cc(/C=C/C(=O)N2CCC=CC2=O)cc(OC)c1OC", "> 50.1 µM"),
    ("CNC[C@H]1C[C@@H]2c3ccccc3Cc3ccc(F)cc3[C@H]2O1", "> 100 µM"),
    ("CCC1CN2CCC1CC2C(O)c1ccnc2ccc(OCCC(C)C)cc12 (stereo not given)", "> 100 µM"),
    ("CCCOc1ccc(C(=O)CCN2CCCCC2)cc1", "> 100 µM"),
    ("CCCCOc1cc(C(=O)NCCN(CC)CC)c2ccccc2n1", "~29.5 µM"),
]

----------
Test: in vitro
Details: chlorocebus sabaeus, Vero E6 (Vero C1008) cells, CC50
Listed compounds paired with reported log10(CC50 at 48 h)
Quantity Name: log10(CC50 at 48 h) (log10 of the value in µM)

# Compound, log10(CC50 at 48 h)
measured = [
    ("Cc1cc(-c2ccc(/N=N/c3ccc4c(S(=O)(=O)O)cc(S(=O)(=O)O)c(N)c4c3O)c(C)c2)ccc1/N=N/c1ccc2c(S(=O)(=O)O)cc(S(=O)(=O)O)c(N)c2c1O [EVANS BLUE FREE ACID]", 1.26),
    ("Cc1cc(C)c2nc(-c3cnc(NCCCC4CCN(C)CC4)nc3C)[nH]c2c1 [TOREFORANT]", 1.35),
    ("CN(C)CC/C=C1\\c2ccccc2CSc2ccccc21 [DOTHIEPIN]", 1.30),
    ("CCCCc1oc2ccc(NS(C)(=O)=O)cc2c1C(=O)c1ccc(OCCCN(CCCC)CCCC)cc1 [DRONEDARONE]", 0.59),
    ("NC(=O)C(c1ccccc1)(c1ccccc1)[C@@H]1CCN(CCc2ccc3c(c2)CCO3)C1 [DARIFENACIN]", 1.75),
    ("CCOC1O[C@H]([C@@H](COCc2ccccc2)OCc2ccccc2)[C@H](OCc2ccccc2)[C@H]1O (some centres not stated) [TRIBENOSIDE]", 1.24),
    ("COC(=O)C1=C(C)NC(C)=C(C(=O)OC2CCCN(Cc3ccccc3)C2)C1c1cccc([N+](=O)[O-])c1 (configuration not stated) [BENIDIPINE]", 1.17),
    ("COc1ccc2c(c1)N(C[C@H](C)CN(C)C)c1ccccc1S2 [LEVOMEPROMAZINE]", 1.06),
    ("CN1CCN(CC/C=C2/c3ccccc3Sc3ccc(S(=O)(=O)N(C)C)cc32)CC1 [THIOTHIXENE]", 0.70),
    ("OCc1cc(C(O)CNCCCCCCOCCCCc2ccccc2)ccc1O (configuration not stated) [SALMETEROL]", 1.27),
    ("CC[C@@H]1C(=O)N(C)c2cnc(Nc3ccc(C(=O)NC4CCN(C)CC4)cc3OC)nc2N1C1CCCC1 [BI-2536]", -0.22),
    ("OCCN1CCN(CCCN2c3ccccc3Sc3ccc(C(F)(F)F)cc32)CC1 [FLUPHENAZINE]", 0.89),
    ("COc1ccc2c(c1)N(CCCN(C)C)c1ccccc1S2 [METHOXYPROMAZINE]", 1.15),
    ("CC[C@@H]1C(=O)N(C)c2cnc(Nc3ccc(C(=O)N[C@H]4CC[C@H](N5CCN(CC6CC6)CC5)CC4)cc3OC)nc2N1C(C)C [VOLASERTIB]", -0.63),
]

----------
System: Vero C1008
Conditions: chlorocebus sabaeus, vero c1008, 48 h; 48 h

# Smiles Entry, Study System, CC50
measured = [
    ("CNC[C@H]1C[C@@H]2c3ccccc3Cc3ccc(F)cc3[C@H]2O1", "Vero C1008", "~22.4 µM"),
]

----------
Tested on: SARS-CoV-2
Assay: microbe, parasite or virus in culture
Conditions: Severe acute respiratory syndrome coronavirus 2, Vero C1008, 48 h
The reader will find reported IC50 values listed item by item below.

# Molecule, Study System, IC50
measured = [
    ("Cc1csc(Cl)c1NC1=NCCN1", "SARS-CoV-2", "> 20 µM"),
    ("COc1ccc2cc(-c3cc(-c4cc(Cl)cc(Cl)c4)nn3[C@@H](C)c3ccc(C(=O)NCCC(=O)O)cc3)ccc2c1", "SARS-CoV-2", "> 100 µM"),
    ("COC(=O)[C@H]1[C@H]2C[C@@H]3c4[nH]c5cc(OC)ccc5c4CCN3C[C@H]2C[C@@H](OC(=O)c2cc(OC)c(OC)c(OC)c2)[C@@H]1OC", "SARS-CoV-2", "> 25.1 µM"),
    ("CC(=O)NO [ACETOHYDROXAMIC ACID]", "SARS-CoV-2", "> 20 µM"),
]

----------
Test system: SARS-CoV-2
Test: microbe, parasite or virus in culture
Settings: Severe acute respiratory syndrome coronavirus 2, Vero C1008, 48 h
pIC50: −log10 of the molar value.
Reported values of pIC50 for individual entries

# Molecule, Study System, pIC50
data = [
    ("Cc1ccc(Nc2c(F)cccc2Cl)c(CC(=O)O)c1 [LUMIRACOXIB]", "SARS-CoV-2", "< 4.70"),
    ("O=C1CC(c2ccc(O)c(O)c2)Oc2cc(O)cc(O)c21 (centres undefined)", "SARS-CoV-2", "< 4.70"),
    ("CC[C@H]1OC(=O)[C@H](C)[C@@H](O[C@H]2C[C@@](C)(OC)[C@@H](O)[C@H](C)O2)[C@H](C)[C@@H](O[C@@H]2O[C@H](C)C[C@H](N(C)C)[C@H]2O)[C@](C)(O)C[C@@H](C)/C(=N\\OCOCCOC)[C@H](C)[C@@H](O)[C@]1(C)O [ROXITHROMYCIN]", "SARS-CoV-2", "< 4.70"),
    ("N[C@H](Cc1c[nH]cn1)C(=O)O [D-HISTIDINE]", "SARS-CoV-2", "< 4.70"),
    ("C#CCN[C@@H]1CCc2ccccc21 [RASAGILINE]", "SARS-CoV-2", "< 4.70"),
    ("CC(N/C(=N\\C#N)Nc1ccncc1)C(C)(C)C (centres undefined) [PINACIDIL ANHYDROUS]", "SARS-CoV-2", "< 4.70"),
    ("Oc1ccc(/C=C/c2cc(O)cc(O)c2)cc1 [RESVERATROL]", "SARS-CoV-2", "< 4.70"),
    ("C[N+](C)(C)CC(O)CC(=O)[O-] (centres undefined) [CARNITINE]", "SARS-CoV-2", "< 4.70"),
    ("CCCc1ccc(C(=O)O)nc1", "SARS-CoV-2", "< 4.70"),
    ("CCC(=O)OC1(c2ccccc2)CCN(C)CC1C (centres undefined) [ALPHAPRODINE]", "SARS-CoV-2", "< 4.70"),
    ("C#CCC/C(O)=C(\\C#N)C(=O)Nc1ccc(C(F)(F)F)cc1", "SARS-CoV-2", "< 4.70"),
    ("Nc1ncn([C@H]2C[C@H](O)[C@@H](CO)O2)c(=O)n1 [DECITABINE]", "SARS-CoV-2", "< 4.70"),
    ("C=C1/C(=C\\C=C2/CCC[C@]3(C)[C@@H]([C@H](C)/C=C/[C@@H](O)C4CC4)CC[C@@H]23)C[C@@H](O)C[C@@H]1O [CALCIPOTRIENE]", "SARS-CoV-2", "< 4.70"),
    ("O=C(O)Cc1cccc(-c2cc(CCCCCCc3ccc(O[C@H]4O[C@H](CO)[C@@H](O)[C@H](O)[C@@H]4O)c(-c4cccc(CC(=O)O)c4)c3)ccc2O[C@H]2O[C@H](CO)[C@@H](O)[C@H](O)[C@@H]2O)c1 [BIMOSIAMOSE]", "SARS-CoV-2", "< 4.70"),
    ("Nc1ccc(C(=O)NCC(=O)O)cc1 [AMINOHIPPURIC ACID]", "SARS-CoV-2", "< 4.70"),
    ("CC(C)=CC1C(CO)C1(C)C (centres undefined) [CHRYSANTHEMYL ALCOHOL]", "SARS-CoV-2", "< 4.70"),
    ("CNCCc1ccc(OC(=O)C(C)C)c(OC(=O)C(C)C)c1 [IBOPAMINE]", "SARS-CoV-2", "< 4.70"),
    ("CCCCC/C=C/C/C=C/CCCCCCCC(=O)NC(C)c1ccccc1 (centres undefined) [MELINAMIDE]", "SARS-CoV-2", "< 4.70"),
    ("C[C@@H](N)C(=O)N[C@@H](Cc1ccccc1)C(=O)O", "SARS-CoV-2", "< 4.70"),
]

Cited source for all entries: ChEMBL document CHEMBL4651402
